# test_target: T1, His6-tagged PCNA from Pyrococcus abyssi (Pyrococcus abyssi, UniProt Q9UYX8 1-249)
# T1 construct: PCNA, Pyrococcus abyssi; open reading frame optimized and synthesized, in pET28-a(+) with a thrombin-cleavable N-terminal 6xHis tag; PCNA with its His tag kept, captured on the NTA chip for SPR; also called His-tagged PCNA; source: E. coli BL21-CodonPlus (DE3)-RIPL, purified (heat step, HisTrap, heparin, size exclusion); not shown: His6, N-terminal, kept
# T1 sequence (looked up): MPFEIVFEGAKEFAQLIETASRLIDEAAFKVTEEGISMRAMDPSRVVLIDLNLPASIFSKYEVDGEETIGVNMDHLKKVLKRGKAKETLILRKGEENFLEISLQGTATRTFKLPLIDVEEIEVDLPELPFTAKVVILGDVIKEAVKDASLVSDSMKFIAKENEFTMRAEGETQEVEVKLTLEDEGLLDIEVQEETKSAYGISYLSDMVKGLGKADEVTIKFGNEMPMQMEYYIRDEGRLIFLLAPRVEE
# test_protocol: SPR; Biacore T200; ~2000 RU His-tagged PCNA and PriS-PriL(1–210) on an NTA chip, His-tagged MBP as reference; cPIP peptide 0-200 µM, 30 s at 30 µL/min, 25 °C, buffer E with 100 µM EDTA; steady-state fit
# reported_conditions: both partners purified
endpoint: Kd (µM)

binder: KKRVISLEEFFS (C-terminal PIP-box (cPIP) of PolD DP2, Pyrococcus abyssi; limits worked out from the printed residues V1258, I1259, L1261, F1264; also called canonical PIP-box; source: synthetic peptide (Smart Bioscience)) [cPIP peptide (12 amino-acid peptide mimicking the DP2 C-terminal PIP-box)]
val: 49
